B1: library; a variant is named by its letters at N, in order (parent)
chain: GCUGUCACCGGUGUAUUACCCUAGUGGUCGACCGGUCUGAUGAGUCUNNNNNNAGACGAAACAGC

Variants of: B1
Assay: normalized RNA/DNA level without ligand (relative to sTRSVctl = 100) (log10 (% of sTRSVctl)); ligand: hypoxanthine (xanthine aptamer); higher = less ribozyme self-cleavage, higher mRNA level
Conditions: HEK293T, reporter: mCherry (pCS4076), ligand present: no
metric: normalized RNA/DNA level without ligand (log10)

var	recorded value
ACGAUU	1.32
UCCUCC	1.78
UCCGAA	1.63
UCUUAU	1.84
UAUUCG	1.74
AUCCCC	1.87
GACGCU	1.89
AGAGCA	1.75
GUGAAU	1.7
AUCAUU	1.96
GAUUGG	1.29
UAGUGC	1.71
GGCUCA	1.91
GCGCGC	1.68
AAAUAA	1.74
GUGCGU	1.71
CGUAAC	1.77
GGUUUU	1.89
CCCUCG	1.81
ACGAAG	1.07
UUAUCC	1.93
CGCGUC	2.01
AAUGGA	1.61
GCGUGA	1.4
UUCACA	1.88
GAGAGA	1.34
GUCCGU	1.86
CCCGAU	1.8
UUUCAG	1.71
AUGGUG	1.33
GGCCCG	1.88
AUGUCU	1.85
UACAUA	1.86
ACUGGA	1.71
GUCCUA	1.93
CAAUUA	1.73
CAAAGA	1.77
UAGGAC	1.83
AAACUG	1.43
GGACAC	1.71
GUCACU	1.91
GUAUUA	1.84
GUAGCG	1.53
GGGAUA	1.69
UUAAGC	1.84
ACUAUG	1.48
GGUUCA	1.89
AUGUGA	1.56
CGUUAC	1.72
UUUGGC	1.92
AAUGCC	1.83
UAAUGA	1.65
UGCCCU	1.94
ACUCAC	1.97
AAGAUG	1.09
CAAGGC	1.84
ACAAGU	1.56
CAGAGC	1.74
GUAUUU	1.86
UCACAC	1.74
GAACCC	1.88
UUGGCC	2.01
AUUGAU	1.73
CAACCC	1.85
AUUCUC	1.96
ACGGAA	1.45
GACACG	1.51
CGGACU	1.79
AUACGC	1.72
ACUACG	1.47
UGACAC	1.84
CGUCUU	1.96
GGCGCG	1.81
CUACUG	1.93
UCACAU	1.8
CACGUG	1.79
UGCCUA	1.93
UAACAA	1.75
UGCACU	1.9
AGACUC	1.94
AAAUCU	1.9
GUACCC	1.87
UGUGCU	1.93
UCCAUG	1.49
GCUCCU	1.98
GCACUU	1.9
UAGGCU	1.89
AACUAA	1.81
GGGUGC	1.52
CUAAUU	1.87
UCUCCG	1.43
